Where do these numbers come from? They come from patent US7435820B2.

# inhibition at 10 µM listing for each entry below
target: human KDR enzyme (Homo sapiens); construct: The cytoplasmic domain of the human KDR enzyme was cloned in GST fusion form; GST; made in house; host or cells: SF21 insect cells (baculovirus, pFastBac); assay: KDR kinase inhibition: phosphorylation of PLCγ SH2-SH3 substrate by KDR enzyme, 33P-ATP scintillation plate; format: biochemical; conditions: Assay 2, read-out: KDR % Inhib at 10 μM Assay 2
Sequence (P35968 786-1356 limits assumed): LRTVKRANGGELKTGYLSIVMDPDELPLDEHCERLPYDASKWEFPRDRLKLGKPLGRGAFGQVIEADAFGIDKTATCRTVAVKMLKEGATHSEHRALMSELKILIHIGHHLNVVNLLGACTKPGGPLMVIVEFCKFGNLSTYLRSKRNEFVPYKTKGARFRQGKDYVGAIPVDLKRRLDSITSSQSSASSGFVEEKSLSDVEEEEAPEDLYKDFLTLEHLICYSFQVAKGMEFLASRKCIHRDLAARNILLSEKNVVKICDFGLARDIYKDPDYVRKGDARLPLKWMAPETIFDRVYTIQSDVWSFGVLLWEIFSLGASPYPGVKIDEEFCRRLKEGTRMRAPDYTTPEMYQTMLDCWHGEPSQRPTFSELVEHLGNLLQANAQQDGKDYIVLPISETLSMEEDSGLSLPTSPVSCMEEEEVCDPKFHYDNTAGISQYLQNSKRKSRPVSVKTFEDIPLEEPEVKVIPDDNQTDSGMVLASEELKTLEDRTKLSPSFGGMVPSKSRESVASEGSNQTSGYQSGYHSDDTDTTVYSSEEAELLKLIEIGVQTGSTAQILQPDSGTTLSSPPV

A selection of reference data follows.
1. Cc1cc2nc(-c3[nH]nc4c3CCN(C(=O)c3ccccc3Nc3ccccc3)C4)[nH]c2cc1C 96.7%
2. Cc1cc2nc(-c3[nH]nc4c3CCN(C(=O)c3ccccc3Nc3cccc(C(F)(F)F)c3)C4)[nH]c2cc1C 50.1%
3. Cc1cc2nc(-c3[nH]nc4c3CCN(C(=O)c3ccccc3NCc3ccco3)C4)[nH]c2cc1C 89.1%
4. Cc1cc2nc(-c3[nH]nc4c3CCN(C(=O)c3ccccc3Nc3cccc(Cl)c3C)C4)[nH]c2cc1C 28.7%
5. Cc1cc2nc(-c3[nH]nc4c3CCN(C(=O)c3ccccc3OCc3ccccc3)C4)[nH]c2cc1C 45.1%
6. Cc1cc2nc(-c3[nH]nc4c3CCN(C(=O)c3ccccc3NCc3ccccc3)C4)[nH]c2cc1C 89%

Now consider a different compound.
Incoming: Consider the compound Cc1cc2nc(-c3[nH]nc4c3CCN(C(=O)c3ccccc3Cc3ccccc3)C4)[nH]c2cc1C . State its measured inhibition at 10 µM.
Outgoing: 68%
